# assay-procedure: chemical genetic growth profiling, strain panel (AID 1159580);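 note: tested at 20 µM; growth read once vehicle control cultures reached saturation at 30 °C; 1 = growth at the plate median or of vehicle wells; lower values mean less growth of the strain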
# experimental-context: S. cerevisiae deletion strains, growth OD, locus YPL256C, strain CLN2, active compounds read low
Among all 5,500 compounds or so, about 2,000 (36%) were called active. Inconclusive results (about 18%) are left out. This is one part of the list. Where a SMILES comes first, the peptide text is derived from it. Side-chain parts run from the residue outwards. [ ]: non-standard residue; d: D form. The star is where a group is joined. X1 = CCC(C)C(N)C1=NC(C(=O)*)CS1; Orn = NCCC[CH](N)C(=O)O
The following molecules are shown together with reported normalized growth values.
quantity-name: normalized growth

molecule	observed-result
CCOc1ccc(C(=O)c2ccc(O)c(O)c2O)cc1	0.984
O=c1oc2c(O)c(O)cc3c(=O)oc4c(O)c(O)cc1c4c23	1.01
COC1(C)CCC2OC2(C)CCC2C1CC2(C)C (stereo not given)	1.03
COc1c2ccoc2cc2oc(C)cc(=O)c12	1.05
COc1c2occc2c(OC)c2c(=O)cc(C)oc12	1.03
C#C[C@]1(O)CCC2C3CCC4=Cc5oncc5C[C@]4(C)C3CC[C@@]21C (stereo not given in full)	0.975
CCN(CC)C(=O)c1ccc(O)c(OC)c1	0.975
CCN(CC)CCNC(=O)c1cc(Cl)c(N)cc1OC	1.13
CC(=O)[C@@]1(O)CCC2C3CCC4=CC(=O)CC[C@]4(C)C3CC[C@@]21C (stereo not given in full)	0.96
Cc1ccc2nc(-c3ccc([N+](=O)[O-])o3)oc(=O)c2c1	0.174
C=C(C)[C@@H]1CC[C@]2(C)CC[C@]3(C)[C@@H](CCC4[C@@]5(C)CC[C@H](O)C(C)(C)C5CC[C@]43C)C12 (stereo not given in full)	0.994
COC(=O)C[C@H]1C(C)(C)[C@@H](O)[C@@H]2CC3=C4C=C(OC)O[C@@H](c5ccoc5)[C@]4(C)CCC3[C@@]1(C)C2=O (stereo not given in full)	0.955
COc1cc(NS(=O)(=O)c2ccc(N)cc2)ncn1	0.974
O=c1[nH]cnc2c1ncn2C1O[C@H](CO)[C@@H](O)[C@H]1O (stereo not given in full)	0.965
O=C(Nc1cc2c(s1)-c1cc(Cl)ccc1SC2)Oc1ccccc1	0.912
COc1cc(O)cc(OC)c1OC	0.978
CN1C(=O)CCS(=O)(=O)C1c1ccc(Cl)cc1 (stereo not given)	0.956
CCCCCCCCCCCCCCCCCCOCC(O)CO (stereo not given)	0.983
CC[C@H]1CN2CCc3cc(OC)c(OC)cc3C2C[C@@H]1CC1NCCc2cc(OC)c(OC)cc21 (stereo not given in full)	1.07
Cn1nc(-c2ccccc2)c(O)c(N=Nc2ccccc2)c1=O	0.998
O=c1c(-c2ccccc2)c(O)c2cccc3c4ccccc4n1c23	0.15
O=C(Nc1cccnc1)c1cc2c(s1)-c1ccccc1CC2	0.476
CN1CCN(CCC=C2c3ccccc3Sc3ccc(S(=O)(=O)N(C)C)cc32)CC1	0.965
Cc1cc(=O)n(-c2ccccc2)n1C	0.999
CC1(C)C=Cc2cc3ccc(=O)oc3cc2O1	0.776
COc1cc2c(cc1OC)[C@@]13CCN4CC5=CCOC6CC(=O)N2C1[C@H]6[C@H]5C[C@H]43 (stereo not given in full)	0.979
O=C(c1cc2c(s1)-c1ccccc1CC2)N1CCN(Cc2ccccc2)CC1	0.958
COc1cc(-c2coc3cc(O[C@@H]4O[C@H](CO)[C@@H](O)[C@H](O)[C@H]4O)c(OC)c(O)c3c2=O)cc(O)c1OC	1.02
O=C(CCc1ccc(O)cc1)c1c(O)cc(O)cc1O[C@@H]1O[C@H](CO)[C@@H](O)[C@H](O)[C@H]1O	0.966
CCC(C)C(N)C1=NC(C(=O)NC(CC(C)C)C(=O)NC(CCC(=O)O)C(=O)NC(C(=O)NCCCCC2NC(=O)C(CC(N)=O)NC(=O)C(CC(=O)O)NC(=O)C(Cc3cnc[nH]3)NC(=O)C(Cc3ccccc3)NC(=O)C(C(C)CC)NC(=O)C(CCCN)NC2=O)C(C)CC)CS1 (stereo not drawn) (cyclo(DNK([Ile-Glu-Leu-X1])[Orn]IFH); configuration not given here)	1.02
Cc1cc(C(C)(C)C)cc(C)c1CC1=NCCN1	0.949
C#CC1(O)CCC2C3CCC4=CC(=O)CCC4(C)C3CCC21C (stereo not given)	0.994
CC(=O)[O][Hg][c]1ccccc1	0.132
COc1cc(/C=C/C(=O)N2CCC=CC2=O)cc(OC)c1OC	0.964
NC(N)=NC(N)=Nc1ccccc1	0.996
CC(=O)OCC(=O)[C@@]1(O)CCC2C3CCC4=CC(=O)CC[C@]4(C)C3[C@@H](O)C[C@@]21C (stereo not given in full)	0.968
CN1CCN(CCCN2c3ccccc3Sc3ccc(C(F)(F)F)cc32)CC1	0.914
CC(=O)[C@@]12O[C@](C)(c3ccccc3)O[C@@H]1CC1C3CCC4=CC(=O)CC[C@]4(C)C3CC[C@@]12C (stereo not given in full)	1.02
CC(=O)OCC1=C(C(=O)O)N2C(=O)[C@@H](NC(=O)CCCC(N)C(=O)O)C2SC1 (stereo not given in full)	0.967
CCCCCN(CCCCC)C(=O)C(CCC(=O)O)NC(=O)c1ccc(Cl)c(Cl)c1 (stereo not given)	0.987

----------
# assay-procedure: chemical genetic growth profiling, strain panel (AID 1159580)
# experimental-context: S. cerevisiae deletion strains, growth OD, locus YMR219W, strain ESC1
In all, about 5,500 compounds went through this assay and about 2,000 (36%) were called active. Another 18% or so got no clear call; they are omitted. No stated cut-off is given here; in the data, active means normalized growth mostly below about 0.91 (no sharp cut-off); inconclusive means no clear call, values can overlap the other calls; inactive means mostly above about 0.92. The list shows a part of the results.
Classes used: active, inactive

molecule	class-name
COc1cccc(C(=O)N/N=C(/C)c2ccccc2O)c1	inactive
NC(=S)c1ccc(Oc2ccc(Cl)cc2)nc1	active
CC(C)S(=O)(=O)c1csc(C(N)=O)c1Cl	inactive
CNS(=O)(=O)c1cc(Br)ccc1S(=O)c1ccccc1C(=O)O (configuration not stated)	inactive
CC(C)(C)C1=NN(c2ccccc2)C(=O)C1	inactive
O=C1CCCN1c1ccc(Cl)c(Cl)c1	inactive
Cc1cccc(C(=O)c2ccccc2C(=O)O)c1	inactive

----------
# assay-procedure: chemical genetic growth profiling, strain panel (AID 1159580);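 note: tested at 20 µM; growth read once vehicle control cultures reached saturation at 30 °C; 1 = growth at the plate median or of vehicle wells; lower values mean less growth of the strain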
# experimental-context: S. cerevisiae deletion strains, growth OD, locus YER123W, strain YCK3
The campaign covered roughly 5,500 compounds. About 2,000 (36%) were called active. Not shown: some 18% with an inconclusive outcome. Rule as the data show it: active = normalized growth mostly below about 0.91 (no sharp cut-off); inconclusive = no clear call, values can overlap the other calls; inactive = mostly above about 0.92. The list shows a part of the results.
Classes used: active, inactive

molecule	class-name
O=C(NNC(=S)Nc1ccc(Cl)cc1)c1ncc(C(F)(F)F)cc1Cl	inactive
S=C(N/N=C\c1cccs1)NC1CC2CCC1C2 (stereo unspecified)	inactive
OC(CSc1ccccc1)CN1CCN(c2nc(-c3ccccc3)ns2)CC1 (stereo unspecified)	inactive
O=C(Nc1cccnc1)c1cc2c(s1)-c1ccccc1CC2	active
Clc1ccc(N/N=C\c2sccc2Oc2ccccc2)cc1	active
CS/C(Nc1cccc(C(F)(F)F)c1)=C(/C#N)S(=O)(=O)c1ccc(Cl)cc1	inactive
O=c1c(-c2ccccc2)c(O)c2cccc3c4ccccc4n1c23	active
FC(F)(F)c1cc(-c2ccc(Cl)cc2)n[nH]1	inactive
C/C(=N/NC(=O)c1ccc(C(C)(C)C)cc1)c1ccccc1O	inactive
CC(C)(C)C(=O)c1sc2sc(C(=O)C(C)(C)C)c(N)c2c1N	inactive
CC(C)(C)c1ccc(C(=O)NNC(=S)Nc2ccc(Cl)cc2)cc1	inactive

----------
# assay-procedure: chemical genetic growth profiling, strain panel (AID 1159580);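 note: tested at 20 µM; growth read once vehicle control cultures reached saturation at 30 °C; 1 = growth at the plate median or of vehicle wells; lower values mean less growth of the strain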
# experimental-context: S. cerevisiae deletion strains, growth OD, locus YLR418C, strain cdc73, active compounds read low
About 2,000 (36%) of roughly 5,500 compounds were called active. About 18% were inconclusive and are not listed. Some of the results follow.
The following compounds are shown together with reported normalized growth values.
quantity-name: normalized growth

Cc1onc(-c2ccccc2Cl)c1C(=O)N[C@@H]1C(=O)N2[C@@H]1SC(C)(C)[C@@H]2C(=O)O 1.04
CC1(C)S[C@@H]2[C@H](NC(=O)Cc3ccccc3)C(=O)N2[C@H]1C(=O)O 1.03
COc1cccc(OC)c1C(=O)N[C@@H]1C(=O)N2[C@@H]1SC(C)(C)[C@@H]2C(=O)O 0.996
CC[C@H]1OC(=O)[C@H](C)[C@@H](O[C@H]2C[C@@](C)(OC)[C@@H](O)[C@H](C)O2)[C@H](C)[C@@H](O[C@@H]2O[C@H](C)C[C@H](N(C)C)[C@H]2O)[C@](C)(O)C[C@@H](C)[C@@H]2N[C@@H](COCCOC)O[C@H]([C@H]2C)[C@]1(C)O 0.996

----------
# assay-procedure: chemical genetic growth profiling, strain panel (AID 1159580);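 note: tested at 20 µM; growth read once vehicle control cultures reached saturation at 30 °C; 1 = growth at the plate median or of vehicle wells; lower values mean less growth of the strain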
# experimental-context: S. cerevisiae deletion strains, growth OD, locus YOR083W, strain WHI5, active compounds read low
In all, about 5,500 compounds went through this assay and about 2,000 (36%) were called active. Inconclusive results (about 18%) are left out. This is one part of the list. Where a SMILES comes first, the peptide text is derived from it. Side-chain parts run from the residue outwards. [ ]: non-standard residue; d: D form. The star is where a group is joined. X1 = CCC(C)C(N)C1=NC(C(=O)*)CS1; Orn = NCCC[CH](N)C(=O)O
Lab note: anything with normalized growth below 1 is marked MET; values at 1 or higher are marked NOT MET.

compound	class-name
CCOc1cccc(C(=O)c2ccc(O)c(O)c2O)c1	MET
CC(=O)OC[C@H]1O[C@@H](Oc2cc(OC(C)=O)c3c(=O)cc(-c4ccc(OC(C)=O)cc4)oc3c2)[C@H](OC(C)=O)[C@@H](OC(C)=O)[C@@H]1OC(C)=O	NOT MET
CO[C@@]1(NC(=O)Cc2cccs2)C(=O)N2C(C(=O)O)=C(COC(N)=O)CS[C@@H]21	MET
CCC(C)C(N)C1=NC(C(=O)NC(CC(C)C)C(=O)NC(CCC(=O)O)C(=O)NC(C(=O)NCCCCC2NC(=O)C(CC(N)=O)NC(=O)C(CC(=O)O)NC(=O)C(Cc3cnc[nH]3)NC(=O)C(Cc3ccccc3)NC(=O)C(C(C)CC)NC(=O)C(CCCN)NC2=O)C(C)CC)CS1 (stereo not drawn) (cyclo(DNK([Ile-Glu-Leu-X1])[Orn]IFH); configuration not given here)	NOT MET
